# protocol: Stability evaluation of solution formulation (Experimental Example 2)
# Assay type: physicochemical
# test.conditions: solution formulation, pH3.0, 0 week
Please go through the items and note down their Production rate of Alvocidib.
Show the value, then the unit it is measured in.

Some compounds with recorded Production rate of Alvocidib:
>>> observed("CCN(C[C@H]1CCCCN1)C(=O)Oc1cc(O)c2c(=O)cc(-c3ccccc3Cl)oc2c1[C@H]1CCN(C)C[C@H]1O")
"0.0%"
>>> observed("CNCCN(C)C(=O)Oc1cc(O)c2c(=O)cc(-c3ccccc3Cl)oc2c1[C@H]1CCN(C)C[C@H]1O [Comparative Example 14, reference compound]")
"1.3%"

Provide each entry's Production rate of Alvocidib from the list below.
1. CCCN(C[C@@H]1CCCCN1)C(=O)Oc1cc(O)c2c(=O)cc(-c3ccccc3Cl)oc2c1[C@H]1CCN(C)C[C@H]1O
2. CN1CC[C@H](c2c(OC(=O)N(C)CCN)cc(O)c3c(=O)cc(-c4ccccc4Cl)oc23)[C@H](O)C1 [Comparative Example 13, reference compound]
3. CCN(C[C@@H]1CCCCN1)C(=O)Oc1cc(O)c2c(=O)cc(-c3ccccc3Cl)oc2c1[C@H]1CCN(C)C[C@H]1O [Example 1, ditrifluoroacetate]
4. CCCN(C[C@H]1CCCCN1)C(=O)Oc1cc(O)c2c(=O)cc(-c3ccccc3Cl)oc2c1[C@H]1CCN(C)C[C@H]1O

Reply:
1: 0.2%; 2: 0.1%; 3: 0.0%; 4: 0.5%
